# credit: PubChem BioAssay AID1159580

# MEASUREMENT PROTOCOL: chemical genetic growth profiling, strain panel (AID 1159580);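 further: tested at 20 µM; growth read once vehicle control cultures reached saturation at 30 °C; 1 = growth at the plate median or of vehicle wells; lower values mean less growth of the strain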
# STATED CONDITIONS: S. cerevisiae deletion strains, growth OD, locus YDL134C, strain PPH21, hits give low values
Screen size: about 5,500 compounds; about 2,000 (36%) were called active. Not shown: some 18% with an inconclusive outcome. This is one part of the list.
METRIC NAME: normalized growth
Enter a number only.

| COMPOUND | METRIC NAME | VALUE REPORTED |
| --- | --- | --- |
| C/C(=N/O)c1sc2nc(C(F)(F)F)nn2c1C | normalized growth | 0.966 |
| CCC1(O)CC(OC2CC(N(C)C)C(OC3CC(O)C(OC4CCC(=O)C(C)O4)C(C)O3)C(C)O2)c2c(cc3c(c2O)C(=O)c2c(O)cccc2C3=O)C1C(=O)OC (configuration not stated) | normalized growth | 1.01 |
| CC[C@@]1(O)C[C@H](O[C@H]2C[C@H](N(C)C)[C@H](O)[C@H](C)O2)c2c(cc3c(c2O)C(=O)c2c(O)ccc(O)c2C3=O)[C@H]1C(=O)OC | normalized growth | 0.0874 |

Enquiry: Would you mind telling me what normalized growth value was observed for N#CCCN(CC1CCCO1)C(=S)Nc1cc(C(F)(F)F)cc(C(F)(F)F)c1 (configuration not stated) ?
Return: 0.95

Enquiry: Thanks! And CC[C@H]1OC(=O)[C@H](C)[C@@H](O[C@H]2C[C@@](C)(OC)[C@@H](O)[C@H](C)O2)[C@H](C)[C@@H](O[C@@H]2O[C@H](C)C[C@H](N(C)C)[C@H]2O)[C@](C)(OC)C[C@@H](C)C(=O)[C@H](C)[C@@H](O)[C@]1(C)O ?
Return: 0.989

Enquiry: Thanks! And O=C(c1c(F)cccc1F)N1CCN(C(=O)c2c(F)cccc2F)CC1 ?
Return: 0.973

Enquiry: Thanks! And O=C1CCC(N2C(=O)c3ccccc3C2=O)C(=O)N1 (configuration not stated) ?
Return: 1.01
